Field: % inhibition of asexual blood stage proliferation. Provide a value for each of the compounds that follow.
Test system: Plasmodium falciparum NF54 asexual blood stage
Test Protocol: % inhibition of asexual blood stage proliferation (pLDH); higher = more inhibition
Details: 20 µM; 72 h
Numbers only, in %.

Consider the reported % inhibition of asexual blood stage proliferation for these compounds:
NC(=O)c1ccccc1NC(=O)c1ccc(C(=O)Nc2ccccc2C(N)=O)cc1 = 13.6
CC1(C)Cc2c(C#N)c(SCCc3ccccc3)nc(N3CCOCC3)c2CO1 = 89.2

Dear reader, for each entry below, please note its % inhibition of asexual blood stage proliferation.
1. CC(=O)NC[C@H]1CN(c2ccc(N3CCSCC3)c(F)c2)C(=O)O1
2. FC(F)(F)Oc1ccc(Nc2ccc3cccc(Cl)c3n2)cc1
3. NC(=O)c1cnc2ccc(S(=O)(=O)c3ccccc3)cc2c1Nc1ccc(O)cc1
4. CN(C/C=C/C#CC(C)(C)C)Cc1cccc2ccccc12
5. Cc1cc(NS(=O)(=O)c2ccc(-c3ccc(F)cc3F)cc2)no1
6. NC(=O)c1c(N)sc2c1CCCCC2
7. O=C(Nc1cccc(C2=NCCN2)c1)c1ccc(-c2ccc(C(=O)Nc3cccc(C4=NCCN4)c3)cc2)cc1
8. c1cc(CN2CCCNCCNCCCNCC2)ccc1CN1CCCNCCNCCCNCC1

49.9
98
56.5
61.2
-3.92
-4.48
41.2
34.9

Could you share which % inhibition of asexual blood stage proliferation value was measured for "C[C@@H]1O[C@@H]1P(=O)(O)O" ?
11.5

---

Field: % inhibition of HepG2 viability. Provide a value for each of the molecules that follow.
Test system: HepG2-A16-CD81;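 further: HepG2-A16-CD81 hepatoma cells plated as in the liver-stage assay but without sporozoites, with DMSO wells as negative and 25 µM puromycin as positive control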
Test Protocol: % inhibition of HepG2 viability (CellTiter-Glo); higher = more toxic
Details: 5 µM
Give bare numbers, in %.

O=C(NCc1ccccc1Cl)c1cnc2ccccc2n1 = 5.29

Dear reader, for each entry below, please note its % inhibition of HepG2 viability.
1. CCc1cc(O)c(Oc2ccc(C(N)=O)cc2F)cc1F
2. O=S(=O)(Nc1cccc2cccnc12)c1ccccc1
3. CCCCN1C[C@H](O)[C@@H](O)[C@H](O)[C@H]1CO
4. CCC(C)NCC(O)Cn1c2ccc(Cl)cc2c2cc(Cl)ccc21 (stereo unspecified)
5. COc1cc(NS(=O)(=O)c2ccc(C)cc2)c2ncccc2c1
6. CC(C)c1ccc(COc2cccc(-c3cc(S(C)=O)c(C#N)c(=O)[nH]3)c2)cc1 (stereo unspecified)
7. COc1ccc(SCC(=O)N2c3ccccc3Sc3ccccc32)cc1

1. 3.65
2. 5.35
3. -0.43
4. 1.41
5. -7.96
6. 3.83
7. 7.46

Dear reader, for each entry below, please note its % inhibition of HepG2 viability.
1. C[C@H]1COc2c(N3CCN(C)CC3)c(F)cc3c(=O)c(C(=O)O)cn1c23
2. Nc1cc(N)c2nc(-c3ccccc3)c(Nc3ccc(F)cc3)nc2c1
3. CO[C@@]1(NC(=O)Cc2cccs2)C(=O)N2C(C(=O)O)=C(COC(N)=O)CS[C@@H]21

[-1.57, 12.8, -4.03]

---

Field: % inhibition of gametocyte viability. Provide a value for each of the compounds that follow.
System: Plasmodium falciparum NF54 stage IV/V gametocytes
Test Protocol: % inhibition of gametocyte viability (ATP bioluminescence); higher = more inhibition
Details: 5 µM; 24 h

C/C(=N\NC(=O)C1CC1c1ccccc1)c1ccc(NC(=O)c2ccco2)cc1 (stereo unspecified) = < 0%
COc1ccc(NC(=O)c2cc3ccccn3n2)cc1 = < 0%

Dear reader, for each entry below, please note its % inhibition of gametocyte viability.
1. Nc1nc(Nc2ccc3nc(-c4ccc(F)cc4)cc(N)c3c2)cc(-c2ccccc2)n1
2. CN1CCN(Cc2ccc(-c3cnc4[nH]cc(-c5ccc6[nH]ccc6c5)c4c3)cc2)CC1
3. Cc1[nH]c2ccccc2c1CC(=O)N[C@@H](Cc1ccccc1)C(=O)N(C)c1ccccc1

95%
65.5%
< 0%

Dear reader, for each entry below, please note its % inhibition of gametocyte viability.
1. CC[C@@H]1C(=O)OC[C@@H]1Cc1cncn1C
2. CC(C)c1cc2c(cc1S(=O)(=O)O)[C@@]1(C)CCC[C@@](C)(C(=O)O)[C@@H]1CC2
3. COc1cc(Cc2cc(N)nc(N)n2)cc(OC)c1OC

< 0%
< 0%
< 0%

Dear reader, for each entry below, please note its % inhibition of gametocyte viability.
1. CCn1cc(C(=O)O)c(=O)c2cc(F)c(N3CCNC(C)C3)c(F)c21 (stereo unspecified)
2. COc1ccccc1NC(=O)c1ccccc1Sc1ccc([N+](=O)[O-])cc1
3. CC1(C)Cc2c(C#N)c(SCCc3ccccc3)nc(N3CCOCC3)c2CO1
4. COc1ccc2nc(-c3ccccc3)cc(O)c2c1
5. CSc1ccc2c(c1)C(N1CCN(C)CC1)Cc1ccccc1S2 (stereo unspecified)
6. Fc1ccc2c(/C=C/c3cccnc3)c[nH]c2c1
7. COc1cc(C)c2c(Oc3cccc(C(F)(F)F)c3)c(OC)cc(NC(C)CCCN)c2n1 (stereo unspecified)

1. < 0%
2. 1.71%
3. < 0%
4. 13.5%
5. 44.2%
6. < 0%
7. 70%

---

System: CHO
Test Protocol: % viability of CHO cells (MTT); higher = less toxic
Details: 2 µM; 48 h
Field: % viability of CHO cells. Provide a value for each of the compounds that follow.
Provide a numeric answer, followed by its unit.

c1cnc(NCc2ccc(CNc3ncccn3)cc2)nc1 = 85.1%
O=C(c1ccccc1)N1CCN(c2ccccc2NC(=O)C(Cl)(Cl)Cl)CC1 = 113%
COc1ccc(-n2cnc3cc(NCc4ccco4)ccc32)cc1 = 93.6%
Nc1nc(O)ncc1F = 118%
CC(C)n1cnc2c(NCc3ccccc3)nc(NCc3ccccc3)nc21 = 104%
CCC(C)(C)c1ccc(CC(C)CN2C[C@@H](C)O[C@@H](C)C2)cc1 (stereo not given in full) = 100%
O=C(O)c1sccc1S(=O)(=O)n1ccc2cc(Br)ccc21 = 93.4%
Nc1nc(-c2ccccc2)nc2c1ncn2[C@@H]1O[C@H](COS(=O)(=O)NC(=O)c2ccccc2O)[C@@H](O)[C@H]1O = 102%
CCNC(=O)Nc1cn2c(-c3ncc(CC)cn3)cc(-c3cccnc3)cc2n1 = 91.8%

Consider the record given below.
Could you share which % viability of CHO cells value was measured for "CCCCSc1nc(N)c2[nH]c(=O)c(=O)n(Cc3ccccc3)c2n1" ?
114%

---

Field: % viability of CHO cells. Provide a value for each of the compounds that follow.
Tested on: CHO
Test Protocol: % viability of CHO cells (MTT); higher = less toxic
Details: 20 µM; 48 h
Answers are plain numbers, in %.

Consider the reported % viability of CHO cells for these compounds:
Oc1c(C(Nc2ccccn2)c2ccccc2)ccc2cccnc12 (stereo not given) = 68.7
COc1ccc(COc2cc3oc(=O)c4cc(C(C)O)ccc4c3cc2OC)cc1 (stereo not given) = 74.4
CCCC1(C2CC2)c2cc(Cl)ccc2NC(=O)N1C (stereo not given) = 59.9
O=S(=O)(Nc1ccc(-n2cccc2)cc1)c1ccc(Cl)c(Cl)c1 = 90.4
O=[N+]([O-])c1cn(Cc2nc(O)nc(O)c2Br)cn1 = 109
COc1cc2c(O)c3c(c(-c4ccc5c(c4)OCO5)c2cc1OC)C(=O)OC3 = 86.4

Dear reader, for each entry below, please note its % viability of CHO cells.
1. COc1ccc(SCC(=O)N2c3ccccc3Sc3ccccc32)cc1
2. O=C(Nc1nnc(-c2ccccc2)o1)c1ccc(F)cc1

110
114

Dear reader, for each entry below, please note its % viability of CHO cells.
1. Cc1[nH]c2ccccc2c1CCNCc1ccc(/C=C/C(=O)NO)cc1
2. O=c1ccc2ncc(=O)n3c2n1CC3CN1CCC(NCc2cc3c(cn2)OCCC3)CC1 (stereo not given)
3. CSc1ccc2c(c1)C(N1CCN(C)CC1)Cc1ccccc1S2 (stereo not given)
4. CC(=O)N[C@H](C)C(=O)N[C@H](Cc1ccccc1)C(=O)O
5. COc1cc(C(C(=O)NC2CCCCC2)N(C(=O)Cc2c[nH]c3ccccc23)c2ccc(C(C)C)cc2)cc(OC)c1OC (stereo not given)

[37.9, 97.3, 137, 87.7, 90.4]

Dear reader, for each entry below, please note its % viability of CHO cells.
1. NC(=S)N/N=C/c1ncccc1N
2. Cc1cc(CCCOc2c(C)cc(-c3noc(C(F)(F)F)n3)cc2C)on1
3. CC1=C(/C=C/C(C)=C/C=C/C(C)=C/C(=O)Nc2ccc(O)cc2)C(C)(C)CCC1
4. N#Cc1c(F)c(Cl)c(NCc2ccccc2)c(C#N)c1F
5. C[C@H](NC(=O)C(=O)Nc1ccccc1C(C)(C)C)C(=O)N[C@@H](CC(=O)O)C(=O)COc1c(F)c(F)cc(F)c1F
6. CC(C)/N=c1\cc2n(-c3ccc(Cl)cc3)c3ccccc3nc-2cc1Nc1ccc(Cl)cc1

48.6
125
102
-2.81
63.6
98.2

Dear reader, for each entry below, please note its % viability of CHO cells.
1. c1ccc(-c2nnc3c4ccccc4c(N4CCNCC4)nn23)cc1
2. Nc1nc(O)c2ncn(COC(CO)CO)c2n1
3. NC(=O)c1nccn([C@@H]2O[C@H](CO)[C@@H](O)[C@H]2O)c1=O

[91.4, 59.2, 105]

Dear reader, for each entry below, please note its % viability of CHO cells.
1. CCCCCCCCC(CP(=O)(O)C(C)N)C(=O)O (stereo not given)
2. COc1ccc(C(C)(C)C)cc1NC(=O)C(=O)c1ccc(OCCN2CCOCC2)c2ccccc12

[137, 130]

Dear reader, for each entry below, please note its % viability of CHO cells.
1. O=C(NC(=O)N1CCCc2ccccc21)c1ccc(Cl)cc1Cl
2. O=C(O)c1ccc(-n2nc(-c3ccccc3O)nc2-c2ccccc2O)cc1
3. CCC[C@H](NC(=O)[C@@H]1[C@H]2CCC[C@H]2CN1C(=O)[C@@H](NC(=O)[C@@H](NC(=O)c1cnccn1)C1CCCCC1)C(C)(C)C)C(=O)C(=O)NC1CC1
4. CC[C@@H](CO)NCCN[C@@H](CC)CO
5. CCCC(=O)OCCc1ccccc1
6. O=C(Nc1ccccc1C(=O)O)c1cccc(Oc2ccccc2)c1

[99.1, 106, 100, 50.4, 99.3, 61]

Dear reader, for each entry below, please note its % viability of CHO cells.
1. CC(C)(C)NC(=O)[C@@H]1C[C@@H]2CCCC[C@@H]2CN1C[C@@H](O)[C@H](Cc1ccccc1)NC(=O)[C@H](CC(N)=O)NC(=O)c1ccc2ccccc2n1
2. O=C(NCc1ccccc1Cl)c1cnc2ccccc2n1
3. CC(C)c1ccc(COc2cccc(-c3cc(S(C)=O)c(C#N)c(=O)[nH]3)c2)cc1 (stereo not given)

114
124
106

Dear reader, for each entry below, please note its % viability of CHO cells.
1. Cc1cccc(CC(=O)N[C@H]2CCOC2=O)c1
2. CCC(C)n1ncn(-c2ccc(N3CCN(c4ccc(OCC5COC(Cn6cncn6)(c6ccc(Cl)cc6Cl)O5)cc4)CC3)cc2)c1=O (stereo not given)
3. CCCCOC(=O)Nc1cc2nc(C3CCCCC3)[nH]c2cc1N(CC)CC
4. Cc1ccccc1NC(=O)Nc1cccc([N+](=O)[O-])c1
5. Cc1cc(Nc2ccc(F)cc2)nc(SCc2nc3ccccc3[nH]2)n1
6. O=C(Nc1ncc(Cc2cccc3ccccc23)s1)C1CCCCC1

[98.6, 119, 101, 111, 101, 53.3]

Could you share which % viability of CHO cells value was measured for "C[C@@H](O)[C@H](N)C(=O)NS(=O)(=O)c1cccc(-c2ccc3[nH]ncc3c2)c1" ?
96

meta.source: the supplement of paper PMC7801607
